Attribution: the nanobody polyreactivity screen of Harvey et al. (2022)

experiment: yeast display, Sf9 membrane polyspecificity reagent, FACS + sequencing; frameworks hold sequencing errors

BIOSEQUENCE: QLQLEESGGGLVQAGGSLRLSCAASGRIFNYYAMGWYRPAPGKEKELVAAISTVCGSTYYADSVKGRFTISRDKAKNTVYIQMHSLKPEDTSVYYCAAYQYYDFSYSYDYWGQGTQVTVSS
polyreactivity (PSR sort gate): low polyreactivity

BIOSEQUENCE: QVQLVESGGGLVQAGGSLRLSCAASGSIFLGYTMGWSRQAPGKERELVAAINSSGGSTYYADSVKGRFTISRDNAKNTVYLQMNSLKPEDTAVYYCAVANSILLFDSWGQGTQVTVSS
polyreactivity (PSR sort gate): low polyreactivity

BIOSEQUENCE: QVQLVESGGGLVQAGGSLRLSCAASGSIFRSYALGWYRQAPGKERELVAAITWSGGRTYYADSVKGRFTISRDNAKNTVYLQMNSLKPEDTAVYYCNADVWWDTWFLDGYDYWGQGTQVTVSS
polyreactivity (PSR sort gate): high polyreactivity

BIOSEQUENCE: QVQLVESGGGLVQAGGSLRLSCAASGITFAWNAMGWYRPAPGKEREFVAAINWSGGSTYYADSVKGRFTISRDNAKNTVYLQMNSLKPEDTAVYYCAAYKRSYYPRTLYDYWGQGTQVTVSS
polyreactivity (PSR sort gate): high polyreactivity

BIOSEQUENCE: QVQLVESGGGLVQAGGSLRLSCAASGSTFAYNAMGWYRQAPGKERELVATITSGGSTSYADSVKGRFTISRDNAKNTVYLQMNSLKPEDTAVYYCAARKVTKSTYNYWGQGTQVTVSS
polyreactivity (PSR sort gate): low polyreactivity

BIOSEQUENCE: QVQIVESGGGLVQAGGSLRLSCADSGTTFRFNAIGWSRQAPGKERELVAAITGIGGITYYADSVKGRFTISRDNAKNTVYLQMNSLKPEDTAVYYCNAVAARYSVRNGYSTHYDYWGQGTQVTVSS
polyreactivity (PSR sort gate): high polyreactivity

BIOSEQUENCE: QVQLVESGGGLVQAGGSLRLSCAASGRIFKYYAMGWYRQAPGKERELVARISSGGGRTYYADSVKGRFTISRDNAKNTVYLQMNSLKPEDTAVYYCAADPPASYHTWYGYWGQGTQVTVSS
polyreactivity (PSR sort gate): high polyreactivity

BIOSEQUENCE: QVQLVESGGGLVQAGGSLRLSCAASGSIFSDYAKGWYRQAPVKERELVAVITSGGRTNYADSLKGRFTISRDNAKNTVYLQMNSLKPEDTAVFYWNAYVHSRRVEFNYWGQGTQVTVSS
polyreactivity (PSR sort gate): high polyreactivity

BIOSEQUENCE: QFQLVESGGGLVQAGGSLRLSCAASGLIFVGNPMGWYRQAPGKERELVAAISSRGGRTYYADSVKGRFTISRDNAKNTVYLQMNSLKPEDTAVYYCIAANSQWGFEYWGQGTQVTVSS
polyreactivity (PSR sort gate): high polyreactivity

BIOSEQUENCE: QVQLVESGGGLVQAGGSLRLSCAASGFTFPHYMGWYRQAPGKERELVAAINVSGGSTSYADSVKGRFTISRDNAKNTVYLQMNSLKPEDTAVYYCAKDLRFRLFSYPSDYWGQATQVTVSS
polyreactivity (PSR sort gate): low polyreactivity

BIOSEQUENCE: QVQLVESGGGLVQAGGSLRLSCAASGRIFYSYAMGWYRQAPGKERELVAALYSDGSTDYADSVKGRFTISRDNAKNTVYLQMNSLTPEDTAVYFCAADWGWRYVLPVGWFRYGYWGQGTQVTVSS
polyreactivity (PSR sort gate): low polyreactivity
